# Assay explanation: Antiporter activity in Escherichia coli K12 wild type EcNhaA G76C mutant assessed as effect on lithium chloride-induced pH changes by acridine orange fluorescence assay
Recorded endpoint: IC50 (µM)

compound_structure=NC1=Nc2cccc3cccc(c23)N1 recorded_endpoint=IC50 assay_result=1.2

====

# Assayed target: Na(+)/H(+) antiporter NhaA (Escherichia coli K-12, UniProt P13738, H225R)
# Sequence (P13738 whole entry H225R): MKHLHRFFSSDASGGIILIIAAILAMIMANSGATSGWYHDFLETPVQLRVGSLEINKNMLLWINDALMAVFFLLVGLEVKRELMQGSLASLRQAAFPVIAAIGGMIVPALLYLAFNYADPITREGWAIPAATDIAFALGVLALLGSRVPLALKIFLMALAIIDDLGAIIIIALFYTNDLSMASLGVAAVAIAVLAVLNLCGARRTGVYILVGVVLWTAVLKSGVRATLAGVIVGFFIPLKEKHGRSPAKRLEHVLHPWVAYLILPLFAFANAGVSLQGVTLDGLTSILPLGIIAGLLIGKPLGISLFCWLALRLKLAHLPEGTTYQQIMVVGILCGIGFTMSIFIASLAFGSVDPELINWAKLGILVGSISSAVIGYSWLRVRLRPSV
# Assay explanation: Antiporter activity in Escherichia coli K12 wild type EcNhaA H225R mutant assessed as effect on lithium chloride-induced pH changes by acridine orange fluorescence assay
Recorded endpoint: IC50 (µM)

compound_structure=NC1=Nc2cccc3cccc(c23)N1 recorded_endpoint=IC50 result_units=µM assay_result=2.3
